molecular target: UniProt P36894; assay: TR-FRET enzymatic ALK kinase assay, ALK3
Observable: IC50 (nM)

# Compound, System Tested, Observable, Units Label, Observed
measured = [
    ("CC(O)c1cccc(-c2cnn3cc(-c4ccc(C5(C)CCNCC5)cc4)cnc23)c1 (stereo not shown)", "UniProt P36894", "IC50", "nM", 2900),
]

[1] C[C@@H]1CNC[C@H](C)N1c1ccc(-c2cnc3c(-c4cccc(C(N)=O)c4)cnn3c2)cc1
[2] CC(O)c1cccc2c(-c3cnn4cc(-c5ccc(N6[C@H](C)CNC[C@@H]6C)cc5)cnc34)cccc12 (stereo partly shown)
[3] CC(C)(O)c1cccc(-c2cnn3cc(-c4ccc(CCN5CCCCC5)cc4)cnc23)c1
Sort by IC50, descending. When ranking, write the labels in the order the request describes.
2, 3, 1
(2: 7830 nM, 3: 2200 nM, 1: 310 nM)

---

molecular target: ALK3 (Homo sapiens, UniProt P36894); assay: TR-FRET enzymatic ALK kinase assay, ALK3
Sequence (P36894 24-532): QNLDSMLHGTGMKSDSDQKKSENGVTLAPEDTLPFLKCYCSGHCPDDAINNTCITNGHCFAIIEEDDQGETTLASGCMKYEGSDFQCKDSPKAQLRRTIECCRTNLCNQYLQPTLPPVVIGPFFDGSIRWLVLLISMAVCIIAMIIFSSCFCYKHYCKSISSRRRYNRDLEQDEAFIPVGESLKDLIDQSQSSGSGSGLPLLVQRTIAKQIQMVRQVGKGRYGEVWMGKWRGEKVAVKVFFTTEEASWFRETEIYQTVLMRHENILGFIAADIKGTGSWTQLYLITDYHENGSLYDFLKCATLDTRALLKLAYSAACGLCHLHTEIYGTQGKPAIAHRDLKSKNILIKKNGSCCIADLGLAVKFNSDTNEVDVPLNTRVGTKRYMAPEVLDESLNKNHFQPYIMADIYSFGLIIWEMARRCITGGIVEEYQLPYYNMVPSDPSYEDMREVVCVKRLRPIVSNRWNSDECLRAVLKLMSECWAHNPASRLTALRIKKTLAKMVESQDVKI
pIC50: −log10 of the molar value.
Observable: pIC50

# Compound, Observed
measured = [
    ("CN(C)C(=O)c1cccc2c(-c3cnn4cc(-c5ccc(N6CCNCC6)cc5)cnc34)cccc12", 4.96),
]

[P] Fc1ccc(-c2cnn3cc(-c4ccc(CCN5CCCCC5)cc4)cnc23)cc1-c1nnn[nH]1
[Q] NC(c1cccc(-c2cnn3cc(-c4ccc(OCCN5CCCC5)cc4)cnc23)c1)C(F)(F)F (stereo not shown)
# min-compare on pIC50 between P and Q Identify your selection by its label.
Q
(Q: 5.03, P: 6.72)

[1] CC(O)c1cccc(-c2cnn3cc(-c4ccc(CCN5CCCC5)cc4)cnc23)c1 (stereo not shown)
[2] C[C@H](O)c1cccc(-c2cnn3cc(-c4ccc(OC5(CN6CCCCC6)CC5)cc4)cnc23)c1
[3] CC(O)c1cccc(-c2cnn3cc(-c4ccc(OC5(CN6CCCCC6)CC5)cc4)cnc23)c1 (stereo not shown)
Ordering: ascending pIC50. When ranking, write the labels in the order the request describes.
1, 3, 2

[a] NC(=O)c1ccc(-c2cnn3cc(-c4ccc(N5C[C@@H]6C[C@H]5CN6)cc4)cnc23)c2ccccc12
[b] NS(=O)(=O)c1cccc(-c2cnn3cc(-c4ccc(CCN5CCCCC5)cc4)cnc23)c1
For the two items a and b , which reports the higher pIC50 value? Identify your selection by its label.
a
(a: 6.95, b: 5.20)

[P] NC1(c2ccc(-c3cnc4c(-c5ccc(S(N)(=O)=O)c6ccccc56)cnn4c3)cc2)CC1
[Q] C[C@@H]1CNC[C@H](C)N1c1ccc(-c2cnc3c(-c4ccc(-c5nn[nH]n5)c5ccccc45)cnn3c2)cc1
# min-compare on pIC50 between P and Q Identify your selection by its label.
P
(P: 5.32, Q: 6.41)

---

molecular target: ALK4 (Homo sapiens, UniProt P36896); assay: TR-FRET enzymatic ALK kinase assay, ALK4
Sequence (P36896 24-505): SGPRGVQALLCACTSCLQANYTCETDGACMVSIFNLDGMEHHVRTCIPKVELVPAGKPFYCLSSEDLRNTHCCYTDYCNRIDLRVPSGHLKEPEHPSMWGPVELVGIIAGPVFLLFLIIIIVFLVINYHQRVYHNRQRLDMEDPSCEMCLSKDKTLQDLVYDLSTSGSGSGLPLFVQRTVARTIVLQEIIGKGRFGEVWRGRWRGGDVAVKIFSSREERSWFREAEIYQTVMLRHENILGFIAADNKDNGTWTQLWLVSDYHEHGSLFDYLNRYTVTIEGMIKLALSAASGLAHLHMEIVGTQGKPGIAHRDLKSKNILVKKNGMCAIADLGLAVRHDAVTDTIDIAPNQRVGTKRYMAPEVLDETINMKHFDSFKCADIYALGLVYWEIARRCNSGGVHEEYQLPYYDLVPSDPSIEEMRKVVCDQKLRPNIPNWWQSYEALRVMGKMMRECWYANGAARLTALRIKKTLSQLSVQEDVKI
pIC50: −log10 of the molar value.
Observable: pIC50

[P] CC(O)c1ccc(-c2cnn3cc(-c4ccc(N5[C@H](C)CNC[C@@H]5C)cc4)cnc23)c2ccccc12 (some centres unmarked) [Compound 29]
[Q] C[C@@H]1CNC[C@H](C)N1c1ccc(-c2cnc3c(-c4ccc(N)c(S(N)(=O)=O)c4)cnn3c2)cc1 [Compound 85]
# min-compare on pIC50 between P and Q Identify your selection by its label.
Q
